Test: chemical genetic growth profiling, strain panel (AID 1159580);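 further: tested at 20 µM; growth read once vehicle control cultures reached saturation at 30 °C; 1 = growth at the plate median or of vehicle wells; lower values mean less growth of the strain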
Conditions: S. cerevisiae deletion strains, growth OD, locus YOR070C, strain gyp1, hits give low values
The whole screen tested about 5,500 compounds, of which about 2,000 (36%) were called active. Another 18% or so got no clear call; they are omitted. The list shows a part of the results.
measure: normalized growth
Number, no unit, nothing else.

// solved cases for normalized growth follow
[[record]]
compound = "CN1C2CC3C[C@H]1C(O3)C2O (stereo not given in full)"
measure = "normalized growth"
experimental_value = 1.01

[[record]]
compound = "COC1C(O)C(O)C(O)[C@@H](O)C1O (stereo not given in full)"
measure = "normalized growth"
experimental_value = 1

[[record]]
compound = "c1ccc(CN(CC2=NCCN2)c2ccccc2)cc1"
measure = "normalized growth"
experimental_value = 1

[[record]]
compound = "CCSC(=N)N"
measure = "normalized growth"
experimental_value = 1.01

[[record]]
compound = "CC(=O)CC(=O)CCC(=O)O"
measure = "normalized growth"
experimental_value = 1.02

[[record]]
compound = "Cc1cc(OC(=O)N2CCCCC2)c(C(C)C)cc1[N+](C)(C)C"
measure = "normalized growth"
experimental_value = 1


Task item: Tell me its normalized growth given Cc1ccc(O)cc1 as the entry.
Reply: 1.01

Task item: Tell me its normalized growth given CC(=O)O[C@H]1C(=O)[C@@]2(C)C([C@H](OC(=O)c3ccccc3)[C@]3(O)C[C@H](O)C(C)=C1C3(C)C)[C@]1(OC(C)=O)CO[C@@H]1C[C@@H]2O (stereo not given in full) as the entry.
Reply: 0.987

Task item: Tell me its normalized growth given Cc1c(N(C)C)c(=O)n(-c2ccccc2)n1C as the entry.
Reply: 0.999

Task item: Tell me its normalized growth given COc1ccc(-c2cc(=O)c3c(O)cc(OC)c(OC)c3o2)c(OC)c1 as the entry.
Reply: 0.997

// provenance: PubChem BioAssay AID1159580
